target: Tyrosine-protein phosphatase non-receptor type 2 (Homo sapiens, UniProt P17706); test: Inhibition of recombinant human TCPTP using pNPP as substrate measured after 30 mins
Sequence (P17706 whole entry): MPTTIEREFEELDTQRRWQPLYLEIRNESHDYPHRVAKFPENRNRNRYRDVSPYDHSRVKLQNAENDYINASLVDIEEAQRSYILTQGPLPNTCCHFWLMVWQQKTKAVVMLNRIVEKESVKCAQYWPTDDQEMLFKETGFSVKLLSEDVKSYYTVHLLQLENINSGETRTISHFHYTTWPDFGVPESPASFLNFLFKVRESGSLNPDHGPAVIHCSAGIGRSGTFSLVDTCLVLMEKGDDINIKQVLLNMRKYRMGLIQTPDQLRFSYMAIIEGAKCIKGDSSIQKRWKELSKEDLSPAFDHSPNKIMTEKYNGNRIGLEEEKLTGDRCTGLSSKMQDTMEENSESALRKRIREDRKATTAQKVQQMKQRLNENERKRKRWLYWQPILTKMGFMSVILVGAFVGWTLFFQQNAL
pIC50: −log10 of the molar value.
Catalogue of pIC50 readings, one per entry.

{"MOLECULE_SMILES": "CC(C)(C)c1ccc(Oc2ccc(NC(=O)C3=CO[C@@H](O[C@@H]4O[C@H](CO)[C@@H](O)[C@H](O)[C@H]4O)[C@@H]4C(CO)=CC[C@H]34)cc2)cc1", "pIC50": "< 4.00"}

Lab note: CCOS(=O)(=O)/C=C/c1ccc(OCC2=CC[C@@H]3C(C(=O)Nc4ccc(Oc5ccc(-c6ccccc6)cc5)cc4)=CO[C@@H](OC)[C@H]23)cc1 gave pIC50 of 6.02

Lab note: CCc1ccccc1NC(=O)C1=CO[C@@H](O[C@@H]2O[C@H](CO)[C@@H](O)[C@H](O)[C@H]2O)[C@@H]2C(CO)=CC[C@H]12 gave pIC50 of < 4.00

* * *

biological target: Tyrosine-protein phosphatase non-receptor type 1 (Homo sapiens); assay: Inhibition of PTP1B in human HepG2 cells assessed as improvement in insulin-induced 2-NBDG uptake at 10 uM incubated for 24 hrs prior to compound washout followed by insulin stimulation for 20 mins and subsequent 2-NBDG addition measured after 60 mins by FACS analysis relative to control; format: cell-based
RESULT_TYPE: inhibition (%)
Use % as the unit, but write only the number.

Please review the entries below; each comes with its answer.
{"MOLECULE": "CCOS(=O)(=O)/C=C/c1ccc(CNC(=O)C2=CO[C@@H](O[C@@H]3O[C@H](COCc4ccccc4)[C@@H](OCc4ccccc4)[C@H](OCc4ccccc4)[C@H]3OCc3ccccc3)[C@@H]3C(COCc4ccccc4)=CC[C@H]23)cc1", "RESULT_TYPE": "inhibition", "UNIT_ABBREV": "%", "MEASURED_VALUE": 36.5}
{"MOLECULE": "CCOS(=O)(=O)/C=C/c1ccc(OCC2=CC[C@@H]3C(C(=O)Nc4ccc(Oc5ccc(-c6ccccc6)cc5)cc4)=CO[C@@H](OC)[C@H]23)cc1", "RESULT_TYPE": "inhibition", "UNIT_ABBREV": "%", "MEASURED_VALUE": 68}

Field inhibition (Tyrosine-protein phosphatase non-receptor type 1 (Homo sapiens)), entry CCOS(=O)(=O)/C=C/c1ccc(OCC2=CC[C@@H]3C(C(=O)Nc4ccc(Oc5ccc(Br)cc5Cl)cc4)=CO[C@@H](OCc4ccccc4)[C@H]23)cc1 : 68.3

Field inhibition (Tyrosine-protein phosphatase non-receptor type 1 (Homo sapiens)), entry CCc1ccc(CCOc2ccc(CC3SC(=O)NC3=O)cc2)nc1 (centres undefined) : 46

* * *

biological target: Tyrosine-protein phosphatase non-receptor type 1 (Homo sapiens, UniProt P18031); test: Inhibition of recombinant human PTP1B using pNPP as substrate measured after 30 mins
Sequence (P18031 whole entry): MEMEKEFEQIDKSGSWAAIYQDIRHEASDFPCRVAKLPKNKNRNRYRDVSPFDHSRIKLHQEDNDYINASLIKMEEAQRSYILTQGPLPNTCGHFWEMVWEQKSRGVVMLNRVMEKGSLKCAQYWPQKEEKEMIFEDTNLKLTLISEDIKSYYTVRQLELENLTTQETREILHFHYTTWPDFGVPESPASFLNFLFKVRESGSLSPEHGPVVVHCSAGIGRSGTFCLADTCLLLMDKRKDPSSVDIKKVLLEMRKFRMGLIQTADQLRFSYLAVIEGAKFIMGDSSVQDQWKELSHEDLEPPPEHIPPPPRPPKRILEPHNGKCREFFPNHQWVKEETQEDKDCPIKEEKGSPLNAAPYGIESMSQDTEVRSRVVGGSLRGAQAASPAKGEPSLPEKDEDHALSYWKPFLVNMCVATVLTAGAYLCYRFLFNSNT
RESULT_TYPE: IC50 (µM)
Use µM as the unit, but write only the number.

{"MOLECULE_SMILES": "COC(=O)C1=CO[C@@H](OC)[C@@H]2C(CO)=CC[C@H]12", "TARGET_UNDER_TEST": "Tyrosine-protein phosphatase non-receptor type 1 (Homo sapiens, UniProt P18031)", "RESULT_TYPE": "IC50", "MEASURED_VALUE": 236}

Now for a further compound.
Lab note: O=C(Nc1ccc(-c2ccccc2)cc1)C1=CO[C@@H](O[C@@H]2O[C@H](CO)[C@@H](O)[C@H](O)[C@H]2O)[C@@H]2C(CO)=CC[C@H]12 gave IC50 of 21.7
